Molecular target: Thromboxane receptor (TP) (Homo sapiens, UniProt P21731)
Construct: expressed in transfected cells; host or cells: HEK-293 cells
Sequence (P21731 whole entry): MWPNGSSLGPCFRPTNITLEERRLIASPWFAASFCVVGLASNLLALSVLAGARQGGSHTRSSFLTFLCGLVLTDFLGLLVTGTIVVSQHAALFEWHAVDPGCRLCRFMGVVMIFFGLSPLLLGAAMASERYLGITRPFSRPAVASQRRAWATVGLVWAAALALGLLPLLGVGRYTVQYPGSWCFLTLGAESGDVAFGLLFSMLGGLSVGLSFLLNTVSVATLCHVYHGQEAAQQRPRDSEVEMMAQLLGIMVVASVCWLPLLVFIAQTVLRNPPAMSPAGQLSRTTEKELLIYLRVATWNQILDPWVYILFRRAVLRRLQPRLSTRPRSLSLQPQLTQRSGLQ
Assay: TP receptor radioligand binding
Conditions: Human recombinant HEK-293 cells, 5 nM [3H] SQ-29548
Measured IC50 values are reported for all entries that follow.

molecule	IC50 / nM
O=C(O)CC/C=C\C[C@@H]1CO[C@H](c2coc3ccc(Cl)cc3c2=O)O[C@@H]1c1ccccc1O (single isomer, unassigned) [Compound 3-1]	88.9
O=C(O)CC/C=C\CC1COC(c2coc3ccc(Cl)cc3c2=O)OC1c1ccccc1O (racemic) [Compound 3]	15.2
COc1ccccc1[C@@H]1O[C@H](c2ccccc2Cl)OC[C@@H]1C/C=C\CCC(=O)O [Compound F, reference compound]	23.4
O=C(O)CC/C=C\C[C@H]1CO[C@@H](c2coc3ccc(Cl)cc3c2=O)O[C@H]1c1ccccc1O (single isomer, unassigned) [Compound 3-2]	1680
